Tested on: MDA-MB-435 melanoma
Experiment: NCI-60 one-dose screen, 48 h (100 = growth as untreated, 0 = no growth, -100 = all killed)
Settings: 10 µM unless noted
Compounds without any hit were thinned out: in the full panel of roughly 83,000, 20% have a hit.
For each entry below, report its growth value.
The figure you give is taken to be in %; do not add the unit.

Which growth value belongs to `COc1ccccc1OCC(=O)N1CCCCCC1` ?
101

Which growth value belongs to `Cc1nc2sc(C(=O)Nc3cccc(Br)c3)c(N)c2cc1C(=O)c1ccc(C(F)(F)F)cc1` ?
87.9

Which growth value belongs to `Cc1ccc(-c2csc(/N=C3\C(=O)Nc4ccccc43)n2)cc1` ?
12.9

Which growth value belongs to `Nc1c(Cl)cc([N+](=O)[O-])cc1Br` ?
91.4

Which growth value belongs to c1ccc(N2N=C(c3cccc(Nc4ccncc4)c3)CC2c2ccc3c(c2)OCO3)cc1 (stereo not given) ?
-73.2

Which growth value belongs to CC(Oc1ccc(C(=O)NS(=O)(=O)C(C)(C)C)cc1C(F)(F)F)c1ccc(Oc2ccccc2)cn1 (stereo not given) ?
-4.12

Which growth value belongs to `C=CCn1c(SCC(=O)Nc2ccc(C(=O)/C=C/c3cc(OC)c(OC)c(OC)c3)cc2)nnc1-c1cc(-c2ccc(S(C)(=O)=O)cc2)nc2ccccc12` ?
88.6

Which growth value belongs to `COc1ccc(-n2cc(-c3cc(OC)c(OC)c(OC)c3)n(C(C)=O)c2=O)cc1` ?
84.3

Which growth value belongs to `COc1cc(/C=C/C(=O)c2c(C)oc3nc[nH]c(=O)c23)ccc1O` ?
102

Which growth value belongs to `COc1ccc(-c2nc(SCCC(C)C)nc(N/N=C(/C)c3ccc(C)cc3)c2C#N)cc1` ?
103

====

Tested on: SK-MEL-5 melanoma
Assay: NCI-60 one-dose screen, 48 h (100 = growth as untreated, 0 = no growth, -100 = all killed)
Details: 10 µM unless noted
The panel holds about 83,000 compounds, 20% with a hit somewhere; the sample as a whole holds those more often.
Everything with growth lower than 80% is NOT MET; everything else, including exactly 80%, is MET.

Entry `Cc1c2c(cc[n+]1Cc1ccccc1)c1ccc(OCC3CCCCC3)cc1n2CC1CCCCC1` : is its growth no less than 80%?
NOT MET

Entry `Nc1ccccc1NC(=O)c1ccc(CN2CCC/C(=C\c3cccc(Cl)c3)C2=O)cc1` : is its growth no less than 80%?
NOT MET

Entry `Fc1ccc(-n2cc(COc3ncnc4sc5c(c34)CCCC5)nn2)cc1Cl` : is its growth no less than 80%?
MET

Entry `Cc1cc2nc(-c3ccccc3)c(-c3ccccc3)nc2cc1C` : is its growth no less than 80%?
MET

Entry `O=S(=O)(NCCNc1nccc(-c2c(-c3cccc(F)c3)nc3occn23)n1)c1cccc2ccccc12` : is its growth no less than 80%?
NOT MET

Entry `CCCCCCCCCCN=C(N)N=C(N)N` : is its growth no less than 80%?
NOT MET

Entry CC(N)C(=O)NNc1n[nH]c(=S)n1N (stereo not given) : is its growth no less than 80%?
MET

Entry `C=C1C(=O)O[C@H]2[C@H]1CC/C(COC(=O)CCCCCC(=O)OC/C1=C/CC[C@@]3(C)O[C@H]3[C@H]3OC(=O)C(=C)[C@@H]3CC1)=C\CC[C@@]1(C)O[C@@H]21` : is its growth no less than 80%?
NOT MET

Entry `COc1cc(CCNc2nc3cc(N)cc(N)c3nc2-c2ccccc2)cc(OC)c1` : is its growth no less than 80%?
NOT MET

Entry `c1ccc(CCSc2ncnc3nc[nH]c23)cc1` : is its growth no less than 80%?
MET

Entry `COc1cc(C(=O)/C=C/c2c(C)n([O-])c3ccc(Cl)cc3[n+]2=O)cc(OC)c1OC` : is its growth no less than 80%?
MET

Entry `COc1cccc(CCC(=O)c2cc3c(N)c(C(=O)Nc4ccccc4)sc3nc2C)c1` : is its growth no less than 80%?
NOT MET

Entry CCCCCCCCCCCCC1CCC/C=C\CCC(=O)O1 (stereo not given) : is its growth no less than 80%?
MET

Entry `CCCCCOc1ccc(/C=N/Nc2cc(C)nc3ccc(Br)cc23)cc1` : is its growth no less than 80%?
MET

Entry `Cc1nn(-c2ccccc2)c(N2CCOCC2)c1/C=N/N=c1\sc2ccccc2n1C` : is its growth no less than 80%?
NOT MET

Entry `CCC(=O)c1ccc(O)c(OC)c1` : is its growth no less than 80%?
MET

Entry `COc1ccc(Cc2nc3cc(OC)c(OC)cc3c(=O)[nH]2)cc1` : is its growth no less than 80%?
MET

Entry `CN1CCN(C(=O)[C@]2(C)CC[C@]3(C)CC[C@]4(C)C(=CC(=O)[C@@H]5[C@@]6(C)CCC(=O)NC(C)(C)[C@@H]6CC[C@]54C)[C@@H]3C2)CC1` : is its growth no less than 80%?
MET

Entry `O=C(Nc1ccccc1)Oc1ccccc1-c1ccccc1` : is its growth no less than 80%?
MET

====

System: A549/ATCC NSCLC
Test: NCI-60 one-dose screen, 48 h (100 = growth as untreated, 0 = no growth, -100 = all killed)
Details: 10 µM unless noted
Procedure: Growth inhibition of the A549/ATCC human Non-Small Cell Lung tumor cell line is measured as a screen for anti-cancer activity. Cells are grown in 96 well plates and exposed to the test compound for 48 hours. Compounds are tested at a single concentration, which is 10^-5 M for most compounds. The reported endpoint is percent growth (GI% or GIPRCNT), where numbers from 0 - 100% represent growth inhibition, and numbers from -100% - 0 represent cell death. […]
This is part of a sample that, as a whole, favours compounds with a hit. Of some 83,000 tested, about 20% had one in any assay.
Exam item: assign yes to entries whose growth is below 80% and no to entries at or above 80%. Note that a value of exactly 80% receives no.

Below 80% on growth? Entry `Cc1[nH]n(C(=O)c2ccncc2)c(=O)c1N=Nc1ccc(F)c(Cl)c1`
no

Below 80% on growth? Entry `COc1cc(/C=C/C(=O)c2ccc(Nc3ncnc4ccccc34)cc2)cc(OC)c1`
yes

Below 80% on growth? Entry `C=C(C)[C@@H]1CC[C@]2(C(=O)NCCCN(CCC#N)CCC#N)CC[C@]3(C)[C@H](CC[C@@H]4[C@@]5(C)CCC(=O)C(C)(C)[C@@H]5CC[C@]43C)[C@@H]12`
no

Below 80% on growth? Entry `Nc1c(Cl)cc([N+](=O)[O-])cc1Br`
no

Below 80% on growth? Entry `C=C1C(=O)O[C@H]2[C@H]1CC/C(CNC(=O)/C=C/c1ccc(Br)cc1)=C\CC[C@@]1(C)O[C@@H]21`
yes

Below 80% on growth? Entry `COc1cc2c(cc1[N+](=O)[O-])-c1ccc([N+](=O)[O-])cc1/C2=N\O`
no

Below 80% on growth? Entry `Cc1nn(-c2ccccc2)c(N2CCOCC2)c1/C=N/N=c1\sc2ccccc2n1C`
no

====

System: OVCAR-5 ovarian
Assay: NCI-60 one-dose screen, 48 h (100 = growth as untreated, 0 = no growth, -100 = all killed)
Conditions: 10 µM unless noted
Method: Growth inhibition of the OVCAR-5 human tumor cell line is measured as a screen for anti-cancer activity. Cells are grown in 96 well plates and exposed to the test compound for 48 hours. Compounds are tested at a single concentration, which is 10^-5 M for most compounds. The reported endpoint is percent growth (GI% or GIPRCNT), where numbers from 0 - 100% represent growth inhibition, and numbers from -100% - 0 represent cell death. For example, a value of 40 represents 60% growth inhibition. […]
About 83,000 compounds went through this panel and 20% of them were active in at least one assay; those are over-represented in the sample as a whole. Activity calls are given as the source filed them. Rule for the calls: active = growth percent below 10; inactive = the rest.
Readout: growth

Which growth value belongs to CC(Oc1ccc(C(=O)NS(=O)(=O)C(C)(C)C)cc1C(F)(F)F)c1ccc(Oc2ccccc2)cn1 (stereo unspecified) ?
101% (inactive)

Which growth value belongs to `O=C1/C(=C/c2ccc(O)cc2)COc2ccc(-c3ccccc3)cc21` ?
102% (inactive)

Which growth value belongs to `O=C(N=Nc1c(O)[nH]c2ccc(F)cc12)c1cc2ccccc2[nH]1` ?
103% (inactive)

Which growth value belongs to CC(C)(O)C1CCCN1C(=O)c1ccccc1I (stereo unspecified) ?
87.3% (inactive)

Which growth value belongs to `S=c1[nH]cccc1-c1nnc2n1Nc1nc3ccc(Cl)cc3cc1CS2` ?
95.3% (inactive)

Which growth value belongs to COc1ccc(C(O)c2cc3c(N)c(C(=O)Nc4ccc(Cl)cc4)sc3nc2C)cc1 (stereo unspecified) ?
46.8% (inactive)

Which growth value belongs to `COc1ccncc1C#Cc1cncc(C(=O)Nc2ccc(CN3CCN(C)CC3)c(C(F)(F)F)c2)c1` ?
22.2% (inactive)

Which growth value belongs to `O=S(=O)(NCCCNc1nccc(-c2c(-c3ccc(F)c(O)c3)nc3sccn23)n1)c1ccc(F)cc1` ?
24.4% (inactive)

Which growth value belongs to `O=C(O)/C=C\C(=O)N1C/C(=C\c2ccccc2Cl)C(=O)/C(=C/c2ccccc2Cl)C1` ?
2.41% (active)

Which growth value belongs to COc1cc(OC)cc(C2C3=C(COC3=O)Nc3cc(OC)ccc32)c1 (stereo unspecified) ?
39.5% (inactive)

Which growth value belongs to `O=c1nc2n(nc1/C=C/c1ccco1)CC(c1ccc(Cl)cc1)=NN2` ?
122% (inactive)

Which growth value belongs to `c1ccc(-c2nn(-c3ccccc3)[n+](-c3cccc4ccccc34)n2)cc1` ?
48.1% (inactive)

Which growth value belongs to COc1ccc2c(/C=C3/C(=O)NC(=S)NC3C)cc(=O)oc2c1 (stereo unspecified) ?
94.1% (inactive)

Which growth value belongs to `NC(=S)N/N=C(\c1ccc(Cl)cc1)C1CC1` ?
95.5% (inactive)

Which growth value belongs to `CC1=CC[C@@H]2CC[C@]3(C)[C@H](CC[C@@H]4[C@@]5(C)CCCNC(C)(C)[C@@H]5CC[C@]43C)[C@H]2[C@@H]1C` ?
41.1% (inactive)

Which growth value belongs to `CCCCOc1ccc(/C=N/Nc2cc(C)nc3ccc(Cl)cc23)cc1` ?
88.9% (inactive)

Which growth value belongs to `O=C(N/N=C/c1cccnc1)c1ccccc1Nc1cccc(C(F)(F)F)c1` ?
96.4% (inactive)

Which growth value belongs to `COc1ccc2c(c1)c(CC(=O)NCCOCCOCC(=O)Nc1ccc(OC)c(C(N)=O)c1O)c(C)n2C(=O)c1ccc(Cl)cc1` ?
112% (inactive)

Which growth value belongs to `c1ccc(-c2nnc(Nc3ccc4c(c3)OCCO4)o2)c(NCc2ccncc2)c1` ?
32.2% (inactive)

Which growth value belongs to `CCCN=C(N)c1ccc(NC(=O)c2ccc(C(=O)Nc3ccc(C(N)=NCCC)cc3)cc2)cc1` ?
94.8% (inactive)

Which growth value belongs to `C#Cc1cccc(NC(=O)Nc2ccc(NC(=O)CCl)cc2)c1` ?
-14.5% [8.25 µM] (active)

Which growth value belongs to `O=C1Nc2c(ccc(Cl)c2Cl)/C1=C/c1ccccn1` ?
85.1% (inactive)

Which growth value belongs to `Cc1cc(C(=O)Nc2ncnc3nc[nH]c23)no1` ?
116% (inactive)

Which growth value belongs to `COc1cc(Nc2cc(O)c3c(=O)cc(-c4ccccc4)oc3c2)cc(OC)c1` ?
45.5% (inactive)

Which growth value belongs to `CC(C)(C#N)N1CCN(c2ccccc2Cl)CC1` ?
97.2% (inactive)

Which growth value belongs to `COc1cc(/C=C/C(=O)c2c(C)oc3nc[nH]c(=O)c23)ccc1O` ?
96.5% (inactive)

Which growth value belongs to `O=S(=O)(NCCCNc1nccc(-c2c(-c3cccc(O)c3)nc3occn23)n1)c1ccc(Br)cc1` ?
137% (inactive)

Which growth value belongs to `O=C(CN1CCOCC1)Nc1ccc2ncnc(Nc3ccc(OCc4cccc(F)c4)c(Cl)c3)c2c1` ?
69.2% (inactive)

Which growth value belongs to `COc1ccc(CC(C)=C(c2ccc(OCCN(C)C)cc2)c2ccc(OCCN(C)C)cc2)cc1` ?
86.8% (inactive)

Which growth value belongs to `COc1ccc(Nc2nc(N)nc3c2CCc2occc2-3)cc1` ?
106% (inactive)

Which growth value belongs to COc1ccc(C2CC(c3cccc(Nc4ccncc4)c3)=NN2c2ccc(Cl)cc2)cc1 (stereo unspecified) ?
74.1% (inactive)

Which growth value belongs to `COc1cccc(CCC(=O)c2cc3c(N)c(C(=O)Nc4ccccc4)sc3nc2C)c1` ?
48.6% (inactive)

Which growth value belongs to `CCCCCCOc1ccc(/C=N/Nc2cc(C)nc3ccc(Br)cc23)cc1` ?
-92.7% (active)

Which growth value belongs to `CC(=O)CCSc1ccc(OC(C)=O)cc1` ?
111% (inactive)

Which growth value belongs to `Cn1c(COC(=O)N2CCCCC2)nc2c(N3CCOCC3)nc(-c3ccccc3)nc21` ?
-79.8% (active)

Which growth value belongs to COc1ccc(C(O)c2cc3c(N)c(C(=O)Nc4ccc(Br)cc4)sc3nc2C)cc1 (stereo unspecified) ?
59% (inactive)

Which growth value belongs to CCn1cc(C2NC(=O)c3ccccc3N2)c2cccc(C)c21 (stereo unspecified) ?
19.6% (inactive)

Which growth value belongs to CCCC1C(C(=O)OCC)=C(N)Oc2cc(O)ccc21 (stereo unspecified) ?
108% (inactive)

Which growth value belongs to COc1cc(C2CC(c3cccc(Nc4ccncc4)c3)=NN2c2ccccc2)cc(OC)c1OC (stereo unspecified) ?
89.3% (inactive)

Which growth value belongs to `CC(C)CCSc1nc(NNC(N)=O)c(C#N)c(-c2ccccc2)n1` ?
97.8% (inactive)

Which growth value belongs to `Cc1[nH]c(C(=O)Nc2ccccc2OCc2cccc(C(=O)NCCN)c2)c(Cl)c1Cl` ?
104% (inactive)
